experiment: Surface energy components by IGC with the PSP/LSER method; assay type: physicochemical; settings: PSP/LSER method, Equation (27); unit assumed
Quantity Kind: γb (basic surface energy component) (mJ/m^2)

// below: answered molecules
[
  {
    "Molecule": "CCC(C)(C)C(=O)O[C@H]1C[C@@H](C)C=C2C=C[C@H](C)[C@H](CC[C@@H]3C[C@@H](O)CC(=O)O3)[C@H]21",
    "γb (basic surface energy component) [mJ/m^2]": 2.47
  },
  {
    "Molecule": "COc1cc(C(=O)NS(=O)(=O)c2ccccc2C)ccc1Cc1cn(C)c2ccc(NC(=O)OC3CCCC3)cc12",
    "γb (basic surface energy component) [mJ/m^2]": 4.85
  }
]

a. CC(=O)N1CCN(c2ccc(OCC3COC(Cn4ccnc4)(c4ccc(Cl)cc4Cl)O3)cc2)CC1 (stereo not shown)
b. COc1ccccc1OCCNCC(O)COc1cccc2[nH]c3ccccc3c12 (stereo not shown)
Pick one: a or b . Which has the bigger γb (basic surface energy component) number? Which one? Tell me its label.
b

====

experiment: Surface energy components by IGC with the PSP/LSER method; assay type: physicochemical; details: PSP/LSER method, Equation (36)
Quantity Kind: γtot (total surface energy) (mJ/m^2)

// below: answered compounds
[
  {
    "Compound": "CC(=O)N1CCN(c2ccc(OCC3COC(Cn4ccnc4)(c4ccc(Cl)cc4Cl)O3)cc2)CC1 (centres unmarked)",
    "γtot (total surface energy) / mJ/m^2": 45.86
  },
  {
    "Compound": "COc1cc(C(=O)NS(=O)(=O)c2ccccc2C)ccc1Cc1cn(C)c2ccc(NC(=O)OC3CCCC3)cc12",
    "γtot (total surface energy) / mJ/m^2": 55.07
  },
  {
    "Compound": "COc1ccccc1OCCNCC(O)COc1cccc2[nH]c3ccccc3c12 (centres unmarked)",
    "γtot (total surface energy) / mJ/m^2": 52.96
  }
]

I. CCOC(=O)N1CCC(=C2c3ccc(Cl)cc3CCc3cccnc32)CC1
II. CCC(C)(C)C(=O)O[C@H]1C[C@@H](C)C=C2C=C[C@H](C)[C@H](CC[C@@H]3C[C@@H](O)CC(=O)O3)[C@H]21
Pick one: I or II . Which has the bigger γtot (total surface energy) number? Which one? Tell me its label.
II
(II: 60.00 mJ/m^2, I: 41.60 mJ/m^2)

====

experiment: Surface energy components by IGC with the PSP/LSER method; type: physicochemical; conditions: PSP/LSER method
Quantity Kind: γhb (hydrogen-bonding surface energy component) (mJ/m^2)

// below: answered compounds
[
  {
    "Compound": "CC(=O)N1CCN(c2ccc(OCC3COC(Cn4ccnc4)(c4ccc(Cl)cc4Cl)O3)cc2)CC1 (centres unmarked) [Ketoconazole, ketoconazole]",
    "Unit Name": "mJ/m^2",
    "Value Measured": 0.00
  },
  {
    "Compound": "COc1ccccc1OCCNCC(O)COc1cccc2[nH]c3ccccc3c12 (centres unmarked) [Carvedilol, carvedilol]",
    "Unit Name": "mJ/m^2",
    "Value Measured": 5.13
  },
  {
    "Compound": "CCOC(=O)N1CCC(=C2c3ccc(Cl)cc3CCc3cccnc32)CC1 [Loratadine, loratadine]",
    "Unit Name": "mJ/m^2",
    "Value Measured": 0.00
  }
]

P. CCC(C)(C)C(=O)O[C@H]1C[C@@H](C)C=C2C=C[C@H](C)[C@H](CC[C@@H]3C[C@@H](O)CC(=O)O3)[C@H]21 [Simvastatin, simvastatin]
Q. COc1cc(C(=O)NS(=O)(=O)c2ccccc2C)ccc1Cc1cn(C)c2ccc(NC(=O)OC3CCCC3)cc12 [Zafirlukast, zafirlukast]
Pick one: P or Q . Which has the bigger γhb (hydrogen-bonding surface energy component) number? Which one? Tell me its label.
Q
(Q: 5.64 mJ/m^2, P: 2.64 mJ/m^2)

====

assay: Differential scanning calorimetry (enthalpy of fusion); format: physicochemical; details: DSC, 10 °C/min, triplicate
Quantity Kind: ΔH^m (heat of fusion) (kJ/mol)

[
  {
    "Molecule": "CCC(C)(C)C(=O)O[C@H]1C[C@@H](C)C=C2C=C[C@H](C)[C@H](CC[C@@H]3C[C@@H](O)CC(=O)O3)[C@H]21",
    "Quantity Kind": "ΔH^m (heat of fusion)",
    "Unit Name": "kJ/mol",
    "Value Measured": 29.16
  },
  {
    "Molecule": "COc1cc(C(=O)NS(=O)(=O)c2ccccc2C)ccc1Cc1cn(C)c2ccc(NC(=O)OC3CCCC3)cc12",
    "Quantity Kind": "ΔH^m (heat of fusion)",
    "Unit Name": "kJ/mol",
    "Value Measured": 19.6
  },
  {
    "Molecule": "CC(=O)N1CCN(c2ccc(OCC3COC(Cn4ccnc4)(c4ccc(Cl)cc4Cl)O3)cc2)CC1 (centres unmarked)",
    "Quantity Kind": "ΔH^m (heat of fusion)",
    "Unit Name": "kJ/mol",
    "Value Measured": 53.16
  }
]

a. COc1ccccc1OCCNCC(O)COc1cccc2[nH]c3ccccc3c12 (centres unmarked)
b. CCOC(=O)N1CCC(=C2c3ccc(Cl)cc3CCc3cccnc32)CC1
Pick one: a or b . Which has the bigger ΔH^m (heat of fusion) number? Which one? Tell me its label.
a
(a: 47.36 kJ/mol, b: 27.97 kJ/mol)

====

assay: Cohesive energy (solubility-parameter) components by the PSP/LSER method
Quantity Kind: σd (dispersion PSP) (MPa^0.5)

[
  {
    "Compound": "CC(=O)N1CCN(c2ccc(OCC3COC(Cn4ccnc4)(c4ccc(Cl)cc4Cl)O3)cc2)CC1 (stereo not shown) [Ketoconazole, ketoconazole]",
    "Unit Name": "MPa^0.5",
    "σd (dispersion PSP)": 19.52
  },
  {
    "Compound": "CCOC(=O)N1CCC(=C2c3ccc(Cl)cc3CCc3cccnc32)CC1 [Loratadine, loratadine]",
    "Unit Name": "MPa^0.5",
    "σd (dispersion PSP)": 19.11
  },
  {
    "Compound": "COc1cc(C(=O)NS(=O)(=O)c2ccccc2C)ccc1Cc1cn(C)c2ccc(NC(=O)OC3CCCC3)cc12 [Zafirlukast, zafirlukast]",
    "Unit Name": "MPa^0.5",
    "σd (dispersion PSP)": 19.60
  },
  {
    "Compound": "COc1ccccc1OCCNCC(O)COc1cccc2[nH]c3ccccc3c12 (stereo not shown) [Carvedilol, carvedilol]",
    "Unit Name": "MPa^0.5",
    "σd (dispersion PSP)": 19.75
  }
]

====

test: LSER descriptors by PSP approach from experimental inverse gas chromatography (IGC) data; format: physicochemical; settings: LSER basicity descriptor, initial or tentative estimates
Quantity Kind: B (PSP)

[
  {
    "Molecule": "CCC(C)(C)C(=O)O[C@H]1C[C@@H](C)C=C2C=C[C@H](C)[C@H](CC[C@@H]3C[C@@H](O)CC(=O)O3)[C@H]21 [Simvastatin, simvastatin]",
    "Quantity Kind": "B (PSP)",
    "Value Measured": 0.7
  }
]

A. CC(=O)N1CCN(c2ccc(OCC3COC(Cn4ccnc4)(c4ccc(Cl)cc4Cl)O3)cc2)CC1 (centres unmarked) [Ketoconazole, ketoconazole]
B. COc1cc(C(=O)NS(=O)(=O)c2ccccc2C)ccc1Cc1cn(C)c2ccc(NC(=O)OC3CCCC3)cc12 [Zafirlukast, zafirlukast]
C. COc1ccccc1OCCNCC(O)COc1cccc2[nH]c3ccccc3c12 (centres unmarked) [Carvedilol, carvedilol]
Thanks in advance: please rank these 3 entries by B (PSP), highest to lowest. Please, when replying, give the labels in the order that was requested.
B, C, A

====

assay: LSER descriptors by PSP approach from experimental inverse gas chromatography (IGC) data; format: physicochemical; details: LSER polarity descriptor, initial or tentative estimates
Quantity Kind: S (PSP)

[
  {
    "Compound": "CCOC(=O)N1CCC(=C2c3ccc(Cl)cc3CCc3cccnc32)CC1",
    "S (PSP)": 2.96
  }
]

A. COc1cc(C(=O)NS(=O)(=O)c2ccccc2C)ccc1Cc1cn(C)c2ccc(NC(=O)OC3CCCC3)cc12
B. COc1ccccc1OCCNCC(O)COc1cccc2[nH]c3ccccc3c12 (centres unmarked)
Pick one: A or B . Which has the bigger S (PSP) number? Which one? Tell me its label.
A

P. CCC(C)(C)C(=O)O[C@H]1C[C@@H](C)C=C2C=C[C@H](C)[C@H](CC[C@@H]3C[C@@H](O)CC(=O)O3)[C@H]21
Q. CC(=O)N1CCN(c2ccc(OCC3COC(Cn4ccnc4)(c4ccc(Cl)cc4Cl)O3)cc2)CC1 (centres unmarked)
Pick one: P or Q . Which has the bigger S (PSP) number? Which one? Tell me its label.
P

====

assay: Surface energy components by IGC with the PSP/LSER method; type: physicochemical; conditions: IGC, Dorris–Gray method, amorphous drug, 30 °C
Quantity Kind: γd (dispersion component of surface energy) (mJ/m^2)

[
  {
    "Compound": "CCOC(=O)N1CCC(=C2c3ccc(Cl)cc3CCc3cccnc32)CC1 [Loratadine, loratadine]",
    "Value Measured": 41.6
  },
  {
    "Compound": "CCC(C)(C)C(=O)O[C@H]1C[C@@H](C)C=C2C=C[C@H](C)[C@H](CC[C@@H]3C[C@@H](O)CC(=O)O3)[C@H]21 [Simvastatin, simvastatin]",
    "Value Measured": 57.36
  },
  {
    "Compound": "CC(=O)N1CCN(c2ccc(OCC3COC(Cn4ccnc4)(c4ccc(Cl)cc4Cl)O3)cc2)CC1 (centres unmarked) [Ketoconazole, ketoconazole]",
    "Value Measured": 45.86
  },
  {
    "Compound": "COc1ccccc1OCCNCC(O)COc1cccc2[nH]c3ccccc3c12 (centres unmarked) [Carvedilol, carvedilol]",
    "Value Measured": 47.83
  },
  {
    "Compound": "COc1cc(C(=O)NS(=O)(=O)c2ccccc2C)ccc1Cc1cn(C)c2ccc(NC(=O)OC3CCCC3)cc12 [Zafirlukast, zafirlukast]",
    "Value Measured": 49.43
  }
]

Origin of values: paper PMC6359455
